Target: human CD33 A306S (human, UniProt P20138 18-364)
Sequence (P20138 18-364 A306S limits assumed): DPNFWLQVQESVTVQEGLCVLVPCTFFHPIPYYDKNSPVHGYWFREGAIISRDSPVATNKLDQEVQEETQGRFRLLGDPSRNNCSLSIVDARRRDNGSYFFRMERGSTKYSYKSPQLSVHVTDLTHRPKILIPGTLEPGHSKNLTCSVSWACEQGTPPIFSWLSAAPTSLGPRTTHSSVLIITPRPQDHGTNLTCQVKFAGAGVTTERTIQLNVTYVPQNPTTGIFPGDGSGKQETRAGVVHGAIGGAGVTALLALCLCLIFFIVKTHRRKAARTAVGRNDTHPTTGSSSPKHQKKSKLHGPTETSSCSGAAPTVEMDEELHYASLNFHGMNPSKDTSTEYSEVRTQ
Assay: alanine scan, flow cytometry, HEK293-T;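 note: antibody binding to each alanine-substituted CD33 mutant expressed transiently in HEK293-T, read as fluorescence minus background, mean of duplicates, relative to wild-type CD33 set as 100%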
measure: Mean % WT Binding (% WT binding)
Form entry: value (% WT binding) — number only.

Item Refmab #2 (antibody, V domains shown, The alanine scan used IgG or Fab) VH: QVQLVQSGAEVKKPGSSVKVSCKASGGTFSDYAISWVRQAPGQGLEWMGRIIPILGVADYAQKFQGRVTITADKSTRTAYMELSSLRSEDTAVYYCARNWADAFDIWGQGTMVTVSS VL: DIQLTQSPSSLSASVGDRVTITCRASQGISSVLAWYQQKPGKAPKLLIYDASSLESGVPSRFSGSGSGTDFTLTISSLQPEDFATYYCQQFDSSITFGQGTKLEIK has what recorded Mean % WT Binding?
85.1
